Source of measurements: PubChem BioAssay AID2280

# target_system: Female germline-specific tumor suppressor gld-1 (Caenorhabditis elegans)
# experiment_summary: small molecules blocking C. elegans GLD-1 RNA recognition – biochemical, fluorescence polarization, primary screen (AID 2280);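 further: 0% = DMSO wells with GLD-1 and probe and 100% = wells lacking GLD-1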
# measurement_conditions: purified GLD-1 + fluorescein TGE RNA, at 5.96 µM, hits give high values
Screen size: about 320,000 compounds; about 1,400 (0.44%) were called active. The full list was thinned out, with actives kept by preference.
measured_attribute: inhibition (%)

{"compound": "O=C(COC(=O)Cn1cnc2ccccc21)Nc1cccc2c1C(=O)c1ccccc1C2=O", "unit_abbreviation": "%", "endpoint_value": 78.6}
{"compound": "O=C(O)c1cc(Cl)c(Cl)cc1C(=O)Nc1cccc2ncccc12", "unit_abbreviation": "%", "endpoint_value": 7.15}
{"compound": "CCN1/C(=C\\c2ccc3ccccc3[n+]2CC)Sc2cc(C)ccc21", "unit_abbreviation": "%", "endpoint_value": 61.6}
{"compound": "CC1OC2C(OC1C)N(S(C)(=O)=O)CCN2S(C)(=O)=O (stereo unspecified)", "unit_abbreviation": "%", "endpoint_value": 3.56}
{"compound": "Cc1ccc(NC(=O)C(C)c2cccc(C(=O)c3ccccc3)c2)cc1 (stereo unspecified)", "unit_abbreviation": "%", "endpoint_value": 2.46}
{"compound": "N#C/C(=C\\c1ccccc1C(F)(F)F)C(=O)Nc1ccccc1F", "unit_abbreviation": "%", "endpoint_value": 0.78}

* * *

# target_system: Female germline-specific tumor suppressor gld-1 (Caenorhabditis elegans) (UniProt Q17339)
# Sequence (Q17339 whole entry, looked up): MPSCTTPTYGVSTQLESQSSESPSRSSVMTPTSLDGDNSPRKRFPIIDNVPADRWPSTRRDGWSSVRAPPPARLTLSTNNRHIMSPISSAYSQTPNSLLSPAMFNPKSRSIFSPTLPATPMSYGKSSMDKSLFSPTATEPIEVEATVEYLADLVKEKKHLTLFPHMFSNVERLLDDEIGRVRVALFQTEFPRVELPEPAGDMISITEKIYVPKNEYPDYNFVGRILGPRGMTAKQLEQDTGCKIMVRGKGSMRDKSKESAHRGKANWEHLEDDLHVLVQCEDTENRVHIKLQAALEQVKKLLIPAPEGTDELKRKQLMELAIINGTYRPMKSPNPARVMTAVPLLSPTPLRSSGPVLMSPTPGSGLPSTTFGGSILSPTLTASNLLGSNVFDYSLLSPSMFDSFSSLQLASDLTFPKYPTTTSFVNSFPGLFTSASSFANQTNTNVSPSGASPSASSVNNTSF
# experiment_summary: small molecules blocking C. elegans GLD-1 RNA recognition – biochemical, fluorescence polarization, primary screen (AID 2280);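 further: 0% = DMSO wells with GLD-1 and probe and 100% = wells lacking GLD-1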
# measurement_conditions: purified GLD-1 + fluorescein TGE RNA, at 5.96 µM
Out of some 320,000 compounds screened, about 1,400 (0.44%) were called active.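 How the source made its calls: active means percent inhibition above a per-plate cutoff, the plate mean of test compounds plus 3 SD (cut at about 30% in these data); inactive means the rest.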 Only a selection was taken, and actives are over-represented in it overall.
Possible outcomes: T (active), F (inactive)

{"compound": "COc1ccc(C(=O)NCCNc2ccc([N+](=O)[O-])cn2)cc1", "target_system": "Female germline-specific tumor suppressor gld-1 (Caenorhabditis elegans) (UniProt Q17339)", "answer_label": "F"}
{"compound": "COc1cc(S(=O)(=O)N2CCN(C(=O)C3CC3)CC2)ccc1NC(C)=O", "target_system": "Female germline-specific tumor suppressor gld-1 (Caenorhabditis elegans) (UniProt Q17339)", "answer_label": "F"}
{"compound": "CCOc1ccc(CNC(=O)C2CCC(=O)N2C2CCCC2)cc1OC (stereo not given)", "target_system": "Female germline-specific tumor suppressor gld-1 (Caenorhabditis elegans) (UniProt Q17339)", "answer_label": "F"}
{"compound": "O=C(COC(=O)C1CC2CCCC(C1)C2=O)NC(=O)c1ccccc1 (stereo not given)", "target_system": "Female germline-specific tumor suppressor gld-1 (Caenorhabditis elegans) (UniProt Q17339)", "answer_label": "F"}
{"compound": "c1ccc(-n2nnnc2N2CCOCC2)cc1", "target_system": "Female germline-specific tumor suppressor gld-1 (Caenorhabditis elegans) (UniProt Q17339)", "answer_label": "F"}
{"compound": "CN(C)c1ccc(Nc2c3c4c(cccc4n(C)c2=O)C(=O)c2ccccc2-3)cc1", "target_system": "Female germline-specific tumor suppressor gld-1 (Caenorhabditis elegans) (UniProt Q17339)", "answer_label": "T"}
{"compound": "Cc1ccc(S(=O)(=O)N2CCOCC2)cc1C(=O)OC1CCCCC1=O (stereo not given)", "target_system": "Female germline-specific tumor suppressor gld-1 (Caenorhabditis elegans) (UniProt Q17339)", "answer_label": "F"}
{"compound": "CCOc1ccc(C2=CC(c3ccccc3)n3ncnc3N2)cc1 (stereo not given)", "target_system": "Female germline-specific tumor suppressor gld-1 (Caenorhabditis elegans) (UniProt Q17339)", "answer_label": "F"}
{"compound": "COc1cccc(Nc2ncccc2C(=O)O)c1", "target_system": "Female germline-specific tumor suppressor gld-1 (Caenorhabditis elegans) (UniProt Q17339)", "answer_label": "F"}
{"compound": "C1=C(N2CCOCC2)/C(=C/c2nc3ccccc3[nH]2)CC1", "target_system": "Female germline-specific tumor suppressor gld-1 (Caenorhabditis elegans) (UniProt Q17339)", "answer_label": "T"}
{"compound": "O=C(NCCN1CCOCC1)[C@H](Cc1ccccc1)N1C(=O)c2ccccc2C1=O", "target_system": "Female germline-specific tumor suppressor gld-1 (Caenorhabditis elegans) (UniProt Q17339)", "answer_label": "F"}
{"compound": "C[C@H]1CN([C@@H](C)CO)C(=O)Cc2cc(NS(C)(=O)=O)ccc2O[C@@H]1CN(C)CC1CC1", "target_system": "Female germline-specific tumor suppressor gld-1 (Caenorhabditis elegans) (UniProt Q17339)", "answer_label": "F"}
{"compound": "Brc1ccc(C2=CC(c3ccco3)n3ncnc3N2)cc1 (stereo not given)", "target_system": "Female germline-specific tumor suppressor gld-1 (Caenorhabditis elegans) (UniProt Q17339)", "answer_label": "T"}
{"compound": "CC1=C(C(=O)OCc2ccccc2)C(c2ccco2)n2ncnc2N1 (stereo not given)", "target_system": "Female germline-specific tumor suppressor gld-1 (Caenorhabditis elegans) (UniProt Q17339)", "answer_label": "F"}
{"compound": "CC(c1cccnc1)N(CCN(C)C)C(=O)Nc1ccc(Cl)c(Cl)c1 (stereo not given)", "target_system": "Female germline-specific tumor suppressor gld-1 (Caenorhabditis elegans) (UniProt Q17339)", "answer_label": "F"}
{"compound": "Cc1ccc(/C=N/NC(=O)CSc2nc3ccccc3o2)cc1", "target_system": "Female germline-specific tumor suppressor gld-1 (Caenorhabditis elegans) (UniProt Q17339)", "answer_label": "F"}
{"compound": "N#C/C(=C(\\O)C(F)(F)F)c1nnc2n1CCCCC2", "target_system": "Female germline-specific tumor suppressor gld-1 (Caenorhabditis elegans) (UniProt Q17339)", "answer_label": "T"}
{"compound": "CC(C)(C)c1ccc(Cn2nnc3c(=O)[nH]c(C4CCCN(C(=O)c5ccco5)C4)nc32)cc1 (stereo not given)", "target_system": "Female germline-specific tumor suppressor gld-1 (Caenorhabditis elegans) (UniProt Q17339)", "answer_label": "F"}
{"compound": "CC(C)c1ccc(C2C(C(=O)c3ccco3)=C(O)C(=O)N2CC2CCCO2)cc1 (stereo not given)", "target_system": "Female germline-specific tumor suppressor gld-1 (Caenorhabditis elegans) (UniProt Q17339)", "answer_label": "F"}
{"compound": "COc1cccc(NC(=O)CN(C)CC(=O)c2c(N)n(Cc3ccccc3)c(=O)n(C)c2=O)c1", "target_system": "Female germline-specific tumor suppressor gld-1 (Caenorhabditis elegans) (UniProt Q17339)", "answer_label": "F"}
{"compound": "Cc1cnc(CN(C)C(=O)CC2C(=O)NCCN2Cc2cccc(F)c2F)[nH]1 (stereo not given)", "target_system": "Female germline-specific tumor suppressor gld-1 (Caenorhabditis elegans) (UniProt Q17339)", "answer_label": "F"}
{"compound": "CN1c2ccc(C=O)c3c(C=O)ccc(c23)N(C)C1(C)C", "target_system": "Female germline-specific tumor suppressor gld-1 (Caenorhabditis elegans) (UniProt Q17339)", "answer_label": "T"}
{"compound": "Cc1ccc(/C=N/NC(=O)COc2ccccc2-c2ccccc2)cc1", "target_system": "Female germline-specific tumor suppressor gld-1 (Caenorhabditis elegans) (UniProt Q17339)", "answer_label": "T"}
{"compound": "Cc1nn(C(=O)c2ccoc2C)c(N)c1-c1ccccc1", "target_system": "Female germline-specific tumor suppressor gld-1 (Caenorhabditis elegans) (UniProt Q17339)", "answer_label": "T"}
{"compound": "COc1ccc(-c2onc3ccc(C(C)=O)cc23)cc1", "target_system": "Female germline-specific tumor suppressor gld-1 (Caenorhabditis elegans) (UniProt Q17339)", "answer_label": "T"}
{"compound": "N#C/C(=C/c1cccc([N+](=O)[O-])c1)c1nnc2n1CCCCC2", "target_system": "Female germline-specific tumor suppressor gld-1 (Caenorhabditis elegans) (UniProt Q17339)", "answer_label": "F"}
{"compound": "C=C1CCN([C@@H](Cc2ccccc2)C(=O)N2CCOCC2)S(=O)(=O)c2ccccc21", "target_system": "Female germline-specific tumor suppressor gld-1 (Caenorhabditis elegans) (UniProt Q17339)", "answer_label": "T"}
{"compound": "COc1cc(C(=O)N2C(=O)c3cccc(N)c3C2=O)cc(OC)c1OC", "target_system": "Female germline-specific tumor suppressor gld-1 (Caenorhabditis elegans) (UniProt Q17339)", "answer_label": "F"}
{"compound": "Nc1ccc2nc3c(=O)[nH]c(=S)[nH]c3nc2c1", "target_system": "Female germline-specific tumor suppressor gld-1 (Caenorhabditis elegans) (UniProt Q17339)", "answer_label": "T"}
{"compound": "CCCC(C(=O)n1nc(C)cc1C)C(NS(=O)(=O)c1ccc(C)cc1)c1ccccc1 (stereo not given)", "target_system": "Female germline-specific tumor suppressor gld-1 (Caenorhabditis elegans) (UniProt Q17339)", "answer_label": "F"}
